Origin of values: ChEMBL document CHEMBL1145735

Test system: Mus musculus
Assay: In vivo antitumor activity against murine sarcoma 180 cells at an optimal dose of 8 mg/kg.
Type: functional

compound: C/C1=C\[C@@H](OC(=O)CNC(=O)CCNC(=O)OC(C)(C)C)C(=O)/C=C/C=C\c2csc(n2)[C@H](C)NC(=O)C[C@@]2(CC1)[S+]([O-])SC(=O)[C@]2(C)O (stereo partly drawn)
T/C: 0.45
--
compound: C/C1=C\[C@@H](OC(=O)CNC(=O)CNC(=O)c2ccccc2)C(=O)/C=C/C=C/c2csc(n2)[C@@H](C)N2C(=O)C[C@@]([C@@](C)(O)C(=O)SCc3oc(=O)oc3C)(CC1)[S+]2[O-] (stereo partly drawn)
T/C: 0.46
--
compound: COCCOCCOCC(=O)O[C@@H]1/C=C(\C)CC[C@]2([C@@](C)(O)C(=O)SCc3oc(=O)oc3C)CC(=O)N([C@H](C)c3nc(cs3)/C=C/C=C/C1=O)[S+]2[O-] (stereo partly drawn)
T/C: 0.39

====

System: Mus musculus
Test: In vivo antitumor activity against lymphocytic leukemia P388 in mice expressed as maximal increase in life span at an optimal dose of 4 mg/kg.
Assay type: functional
Quick reference: ILS at 4 mg/kg of the listed items.
measure: ILS at 4 mg/kg (%)

compound: C/C1=C\[C@@H](OC(=O)CNC(=O)CNC(=O)OC(C)(C)C)C(=O)/C=C/C=C/c2csc(n2)[C@@H](C)N2C(=O)C[C@@]([C@@](C)(O)C(=O)SCc3oc(=O)oc3C)(CC1)[S+]2[O-] (some centres not stated)
measured_target: Mus musculus
measure: ILS at 4 mg/kg
quantity_unit: %
observed_measurement: 39

compound: C/C1=C\[C@@H](OC(=O)CNC(=O)CNC(=O)OCc2ccccc2)C(=O)/C=C/C=C\c2csc(n2)[C@H](C)NC(=O)C[C@@]2(CC1)[S+]([O-])SC(=O)[C@]2(C)O (some centres not stated)
measured_target: Mus musculus
measure: ILS at 4 mg/kg
quantity_unit: %
observed_measurement: 72

compound: C/C1=C\[C@@H](OC(=O)[C@@H](C)NC(=O)OCc2ccccc2)C(=O)/C=C/C=C\c2csc(n2)[C@H](C)NC(=O)C[C@@]2(CC1)[S+]([O-])SC(=O)[C@]2(C)O (some centres not stated)
measured_target: Mus musculus
measure: ILS at 4 mg/kg
quantity_unit: %
observed_measurement: 52

compound: C/C1=C\[C@@H](OC(=O)CCNC(=O)OCc2ccccc2)C(=O)/C=C/C=C\c2csc(n2)[C@H](C)NC(=O)C[C@@]2(CC1)[S+]([O-])SC(=O)[C@]2(C)O (some centres not stated)
measured_target: Mus musculus
measure: ILS at 4 mg/kg
quantity_unit: %
observed_measurement: 53

compound: C/C1=C\[C@@H](OC(=O)CNC(=O)CN(C)C(=O)OCc2ccccc2)C(=O)/C=C/C=C\c2csc(n2)[C@H](C)NC(=O)C[C@@]2(CC1)[S+]([O-])SC(=O)[C@]2(C)O (some centres not stated)
measured_target: Mus musculus
measure: ILS at 4 mg/kg
quantity_unit: %
observed_measurement: 70

compound: C/C1=C\[C@@H](OC(=O)CN(C)C(=O)OCc2ccccc2)C(=O)/C=C/C=C\c2csc(n2)[C@H](C)NC(=O)C[C@@]2(CC1)[S+]([O-])SC(=O)[C@]2(C)O (some centres not stated)
measured_target: Mus musculus
measure: ILS at 4 mg/kg
quantity_unit: %
observed_measurement: 48

compound: CC(=O)NCC(=O)O[C@@H]1/C=C(\C)CC[C@]2(CC(=O)N[C@@H](C)c3nc(cs3)/C=C\C=C\C1=O)[S+]([O-])SC(=O)[C@]2(C)O (some centres not stated)
measured_target: Mus musculus
measure: ILS at 4 mg/kg
quantity_unit: %
observed_measurement: 66
